Where do the numbers come from? From the supplement of paper PMC6555819.

Tested on: LXRb homodimer (NR concentration 270 nM)
Assay: PBM binding z-score (relative to random genomic background probes); higher = stronger binding; sequences stand for … in GC…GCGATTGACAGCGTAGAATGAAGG
Respond with rule met for PBM binding z-score values of 0.2 and above, rule not met for values below.

Worked examples, 5 sequences total:
| RECORD SEQUENCE | CATEGORY |
| --- | --- |
| GCTGCTAGGTCGACTGATGGTCAGCTAAAGCTCG | rule not met |
| CGAACTAGGTCATCAGGACAGTGAAGAGGTTGGA | rule not met |
| CGTCCAAGGTCAAGCTCAGTGAAAGAGACTCGAA | rule met |
| TAGCCTAGGTCATTGGACCAGTATAGTACGCATC | rule not met |
| GCTAGTAGGTCAGTAAAAGGTCACACACCGGTCG | rule met |

Query block: Confirm if PBM binding z-score reported for the sequence CAAACTAGGTCAAGAGGTCAAAGGCCGCTTCCCG is 0.2 or above.
Result block: rule met

Query block: Confirm if PBM binding z-score reported for the sequence CCAGACAGGTGAAAGGTAACTCCGTCTGGTACGC is 0.2 or above.
Result block: rule not met

Query block: Confirm if PBM binding z-score reported for the sequence GATACAGGGGCAAGGCCAGAGTACGCGTATTGAT is 0.2 or above.
Result block: rule not met

Query block: Confirm if PBM binding z-score reported for the sequence CCTACTGGGCCAAAACGGTCATTGATGCCGATAA is 0.2 or above.
Result block: rule not met

Query block: Confirm if PBM binding z-score reported for the sequence ACTTACGGGTCAACGACGTTATAGCACGCGTATA is 0.2 or above.
Result block: rule met

Query block: Confirm if PBM binding z-score reported for the sequence CGAAATAGGTCACCAGGACAGTGAAGAGGTTGGA is 0.2 or above.
Result block: rule not met

Query block: Confirm if PBM binding z-score reported for the sequence TGAATGACGTTAAAGATCAGGGAACGTGGCGTCG is 0.2 or above.
Result block: rule not met
